This section presents compounds with their documented IC50 values.
- target_or_system: γ-secretase (Homo sapiens)
- Construct: endogenous in cells; host or cells: SKNBE2 human neuroblastoma cells (carrying hAPP 695 wild type as substrate)
- experiment_summary: Screening for γ-secretase-modulating activity: Aβ42 in supernatant of SKNBE2 cells carrying hAPP 695 wild type (Alphalisa)
- Assay type: cell-based
- assay_conditions: SKNBE2 human neuroblastoma cells carrying hAPP 695 wild type, overnight incubation, Aβ42 in cell supernatant
- Method: Screening was carried out using SKNBE2 human neuroblastoma cells carrying the hAPP 695—wild type, grown in Dulbecco's Modified Eagle's Medium/Nutrient mixture F-12 (DMEM/NUT-mix F-12) (HAM) provided by Invitrogen (cat no. 10371-029) containing 5% Serum/Fe supplemented with 1% non-essential amino acids, 1-glutamine 2 mM, Hepes 15 mM, penicillin 50 U/ml (units/ml) en streptomycin 50 μg/ml. Cells were grown to near confluency. […]

[
  {
    "compound": "Cc1cn(-c2ccc3n(c2=O)CCN(C(C)c2c[nH]c4cc(F)c(Cl)cc24)C3=O)cn1 (single isomer, unassigned) [compound 184]",
    "unit_spec": "nM",
    "sign_qualifier": "=",
    "IC50": 650
  },
  {
    "compound": "Cc1cn(-c2ccc3n(c2=O)CCN(c2cccc(C(F)(F)F)c2F)C3=O)cn1",
    "unit_spec": "nM",
    "sign_qualifier": "=",
    "IC50": 3800
  },
  {
    "compound": "Cc1cn(-c2ccc3n(c2=O)C[C@@H](C)N(Cc2ccccc2)C3=O)cn1",
    "unit_spec": "nM",
    "sign_qualifier": "=",
    "IC50": 2340
  },
  {
    "compound": "Cc1cn(-c2ccc3n(c2=O)C[C@@H](C)N(Cc2ccccc2C)C3=O)cn1",
    "unit_spec": "nM",
    "sign_qualifier": "=",
    "IC50": 1950
  },
  {
    "compound": "Cc1cn(-c2ccc3n(c2=O)C[C@@H](CO)N(Cc2cc(C(F)(F)F)cc(C(F)(F)F)c2)C3=O)cn1",
    "unit_spec": "nM",
    "sign_qualifier": "=",
    "IC50": 540
  },
  {
    "compound": "Cc1cn(-c2ccc3n(c2=O)CCN(C(C)c2cccc(Cl)c2Cl)C3=O)cn1 (single isomer, unassigned) [10a]",
    "unit_spec": "nM",
    "sign_qualifier": "=",
    "IC50": 140
  },
  {
    "compound": "CCn1cc(CN2C(=O)c3ccc(-n4cnc(C)c4)c(=O)n3C[C@H]2C)c2cc(C)ccc21",
    "unit_spec": "nM",
    "sign_qualifier": "=",
    "IC50": 50
  },
  {
    "compound": "Cc1cn(-c2c(C)cc3n(c2=O)C[C@@H](C)N(Cc2cc(C(F)(F)F)cc(C(F)(F)F)c2)C3=O)cn1",
    "unit_spec": "nM",
    "sign_qualifier": "=",
    "IC50": 790
  },
  {
    "compound": "CCCc1nccn1-c1ccc2n(c1=O)CCN(CC1CC1)C2=O",
    "unit_spec": "nM",
    "sign_qualifier": ">",
    "IC50": 10000
  },
  {
    "compound": "Cc1cn(-c2ccc3n(c2=O)C[C@@H](C)N(CC2(c4ccccc4C)CC2)C3=O)cn1",
    "unit_spec": "nM",
    "sign_qualifier": "=",
    "IC50": 1550
  },
  {
    "compound": "Cc1cn(-c2ccc3n(c2=O)CCN(CCCC(C)(C)C)C3=O)cn1",
    "unit_spec": "nM",
    "sign_qualifier": "=",
    "IC50": 2290
  },
  {
    "compound": "Cc1cn(-c2ccc3n(c2=O)C[C@@H](C)N(Cc2cc(Br)cc(C(F)(F)F)c2)C3=O)cn1",
    "unit_spec": "nM",
    "sign_qualifier": "=",
    "IC50": 110
  },
  {
    "compound": "COc1cccc(CN2CCn3c(ccc(-n4cnc(C)n4)c3=O)C2=O)c1",
    "unit_spec": "nM",
    "sign_qualifier": ">",
    "IC50": 10000
  }
]

Hello, the source for this data is patent US20150141411A1, in case you need it.
